Test: Intracellular concentration by LC/MS/MS in HepG2 cultures parallel to ROS high-content screening
Assay type: in vitro ADME
Settings: human, HepG2 cells; High content screening medium, dose 25 µM
quantity kind: Kp at 25 µM

What value of Kp at 25 µM has been recorded for this entry: `Cc1ccc(F)cc1C(=O)Nc1ccc(C(=O)N2Cc3cccn3Cc3ccccc32)c(Cl)c1`
19.9

----------
Assay: Intracellular concentration by LC/MS/MS in HepG2 cultures parallel to Seahorse assay
Type: in vitro ADME
Details: human, HepG2 cells; Seahorse medium, dose 40 µM
Parameter: Kp at 40 µM. Scope: all listed entries.

Reported Kp at 40 µM for `Cc1ccc(F)cc1C(=O)Nc1ccc(C(=O)N2Cc3cccn3Cc3ccccc32)c(Cl)c1` : what is it?
4.62

State the recorded Kp at 40 µM for this entry: Cc1ccccc1C(=O)Nc1ccc(C(=O)N2CCCC(O)c3cc(Cl)ccc32)c(C)c1 (centres unmarked) [Tolvaptan, tolvaptan, reference compound]
5.7

----------
Endpoint: IC50. System: human BSEP (Homo sapiens). Items follow.
Sequence (O95342 whole entry): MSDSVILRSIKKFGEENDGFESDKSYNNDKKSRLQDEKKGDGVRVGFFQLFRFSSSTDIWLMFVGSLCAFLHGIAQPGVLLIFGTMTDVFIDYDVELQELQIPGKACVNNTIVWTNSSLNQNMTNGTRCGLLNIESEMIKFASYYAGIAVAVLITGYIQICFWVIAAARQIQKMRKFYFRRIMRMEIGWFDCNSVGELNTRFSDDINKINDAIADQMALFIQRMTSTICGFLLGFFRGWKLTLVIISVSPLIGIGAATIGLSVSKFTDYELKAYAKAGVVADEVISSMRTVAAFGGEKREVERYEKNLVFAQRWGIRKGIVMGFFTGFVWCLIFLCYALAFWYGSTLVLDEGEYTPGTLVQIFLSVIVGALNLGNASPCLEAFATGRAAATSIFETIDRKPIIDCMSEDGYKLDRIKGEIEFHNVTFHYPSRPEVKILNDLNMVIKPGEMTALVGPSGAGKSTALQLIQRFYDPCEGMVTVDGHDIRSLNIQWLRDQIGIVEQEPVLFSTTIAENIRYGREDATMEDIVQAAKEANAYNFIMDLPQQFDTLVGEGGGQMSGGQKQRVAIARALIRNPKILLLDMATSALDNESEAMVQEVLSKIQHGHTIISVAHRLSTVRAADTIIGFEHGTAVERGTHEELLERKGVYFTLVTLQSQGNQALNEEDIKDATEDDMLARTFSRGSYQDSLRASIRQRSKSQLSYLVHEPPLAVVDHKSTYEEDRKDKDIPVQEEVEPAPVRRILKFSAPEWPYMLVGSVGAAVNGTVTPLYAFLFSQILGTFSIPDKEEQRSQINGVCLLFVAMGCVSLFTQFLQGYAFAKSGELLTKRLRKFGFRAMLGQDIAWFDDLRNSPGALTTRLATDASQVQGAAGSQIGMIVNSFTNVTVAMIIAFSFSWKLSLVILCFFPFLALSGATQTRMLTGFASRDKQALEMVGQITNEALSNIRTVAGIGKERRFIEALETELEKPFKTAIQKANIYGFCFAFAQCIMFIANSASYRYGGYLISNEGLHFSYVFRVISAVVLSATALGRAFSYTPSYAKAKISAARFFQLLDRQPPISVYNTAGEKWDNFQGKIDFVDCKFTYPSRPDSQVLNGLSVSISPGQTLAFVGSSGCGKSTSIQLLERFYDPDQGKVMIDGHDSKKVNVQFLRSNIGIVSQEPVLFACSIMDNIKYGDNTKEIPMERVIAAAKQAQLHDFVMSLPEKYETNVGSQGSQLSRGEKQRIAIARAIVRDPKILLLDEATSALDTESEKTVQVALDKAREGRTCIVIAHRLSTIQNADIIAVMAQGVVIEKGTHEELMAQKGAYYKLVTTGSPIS
Report the figure in µM without appending any unit label.

Cc1ccc(F)cc1C(=O)Nc1ccc(C(=O)N2Cc3cccn3Cc3ccccc32)c(Cl)c1 ... 15

Param item = Cc1ccccc1C(=O)Nc1ccc(C(=O)N2CCCC(O)c3cc(Cl)ccc32)c(C)c1 (centres unmarked) [Tolvaptan, tolvaptan, reference compound] ; retrieve measured IC50.
16.5
